System: Parabacteroides distasonis
Assay: growth AUC relative to DMSO control (median of replicates) (fraction); higher = more growth (less inhibition), active = hit call of the paper
Conditions: 20 µM; 24 h
Task for the reader: assign each of the following compounds its reported growth AUC.
One number for each entry.

Consider the reported growth AUC for these compounds:
COMPOUND | MEASURED_QUANTITY | MEAS_VALUE
OC(Cc1ccccc1Cl)(Cn1[nH]cnc1=S)C1(Cl)CC1 (stereo unspecified) | growth AUC | 0.916
COP(N)(=O)SC (stereo unspecified) | growth AUC | 1.01
Cc1cc(C)nc(Nc2ccccc2)n1 | growth AUC | 1

Quick one: give me growth AUC for each item below, same order please.
1. CC(C)=CC1C(C(=O)OCc2coc(Cc3ccccc3)c2)C1(C)C (stereo unspecified)
2. COCC(=O)N(c1c(C)cccc1C)[C@@H](C)C(=O)OC

Solution:
1.01
0.796

Form field growth AUC, entry `C[C@@H]1C[C@@H]([C@H](O)CC2CC(=O)NC(=O)C2)C(=O)[C@@H](C)C1` : 0.985

Data origin, for the record: the supplement of paper PMC12669032
